Reference for the values: patent US11702475B2

- Assay: Thermal stability of cysteine-NEM conjugates by DSC
- Assay type: physicochemical
- Condition summary: second identical scan
- Procedure: The thermal stability of cysteine-NEM conjugates was assessed by differential scanning calorimetry (DSC). The only the conjugates tested were those determined to express at high levels, conjugate efficiently, and retain EGFR binding. Additionally, cysteine variants within the BC and FG loops were excluded. Stability data was generated by heating a 400 μL aliquot of the variant from 25° C. to 100° C. at a scan rate of 1° C. per minute in a VP-DSC instrument (MicroCal). […]
Observed property: Second Scan Tm
Provide the measurement as a number trailed by its unit.

Recorded Second Scan Tm, per entry:
Molecule: K62C: cysteine variant of P54AR4-83v2 (SEQ ID 208 and 246); NEM and VC-MMAF conjugates (conjugate, NEM or vcMMAF conjugate; EGFR binding FN3 domain, NEM and VC-MMAF conjugates) MLPAPKNLVVSEVTEDSARLSWDDPWAFYESFLIQYQESEKVGEAIVLTVPGSERSYDLTGLCPGTEYTVSIYGVHNVYKDTNMRGLPLSAIFTT
Reported result: 65 °C
//
Molecule: R18C (conjugate, left off: small tags and cut ends) LPAPKNLVVSEVTEDSACLSWDDPWAFYESFLIQYQESEKVGEAIVLTVPGSERSYDLTGLKPGTEYTVSIYGVHNVYKDTNMRGLPLSAIFTT
Reported result: 62 °C
//
Molecule: T13C (conjugate, left off: small tags and cut ends) LPAPKNLVVSEVCEDSARLSWDDPWAFYESFLIQYQESEKVGEAIVLTVPGSERSYDLTGLKPGTEYTVSIYGVHNVYKDTNMRGLPLSAIFTT
Reported result: 63 °C
//
Molecule: E14C: cysteine variant of P54AR4-83v2 (SEQ ID NOS: 192 and 230); NEM and VC-MMAF conjugates (conjugate, NEM or vcMMAF conjugate; EGFR binding FN3 domain, NEM and VC-MMAF conjugates) MLPAPKNLVVSEVTCDSARLSWDDPWAFYESFLIQYQESEKVGEAIVLTVPGSERSYDLTGLKPGTEYTVSIYGVHNVYKDTNMRGLPLSAIFTT
Reported result: 71 °C
//
Molecule: V8C: cysteine variant of P54AR4-83v2 (SEQ ID NOS: 189 and 227); NEM and VC-MMAF conjugates (conjugate, NEM or vcMMAF conjugate; EGFR binding FN3 domain, NEM and VC-MMAF conjugates) MLPAPKNLCVSEVTEDSARLSWDDPWAFYESFLIQYQESEKVGEAIVLTVPGSERSYDLTGLKPGTEYTVSIYGVHNVYKDTNMRGLPLSAIFTT
Reported result: 69 °C
//
Molecule: V41C: cysteine variant of P54AR4-83v2 (SEQ ID NOS: 200 and 238); NEM and VC-MMAF conjugates (conjugate, NEM or vcMMAF conjugate; EGFR binding FN3 domain, NEM and VC-MMAF conjugates) MLPAPKNLVVSEVTEDSARLSWDDPWAFYESFLIQYQESEKCGEAIVLTVPGSERSYDLTGLKPGTEYTVSIYGVHNVYKDTNMRGLPLSAIFTT
Reported result: 71 °C
//
Molecule: K40C: cysteine variant of P54AR4-83v2 (SEQ ID NOS: 199 and 237); NEM and VC-MMAF conjugates (conjugate, NEM or vcMMAF conjugate; EGFR binding FN3 domain, NEM and VC-MMAF conjugates) MLPAPKNLVVSEVTEDSARLSWDDPWAFYESFLIQYQESECVGEAIVLTVPGSERSYDLTGLKPGTEYTVSIYGVHNVYKDTNMRGLPLSAIFTT
Reported result: 70 °C
//
Molecule: T59C: cysteine variant of P54AR4-83v2 (SEQ ID NOS: 206 and 244); NEM and VC-MMAF conjugates (conjugate, NEM or vcMMAF conjugate; EGFR binding FN3 domain, NEM and VC-MMAF conjugates) MLPAPKNLVVSEVTEDSARLSWDDPWAFYESFLIQYQESEKVGEAIVLTVPGSERSYDLCGLKPGTEYTVSIYGVHNVYKDTNMRGLPLSAIFTT
Reported result: 67 °C
//
Molecule: G60C: cysteine variant of P54AR4-83v2 (SEQ ID NOS: 207 and 245); NEM and VC-MMAF conjugates (conjugate, NEM or vcMMAF conjugate; EGFR binding FN3 domain, NEM and VC-MMAF conjugates) MLPAPKNLVVSEVTEDSARLSWDDPWAFYESFLIQYQESEKVGEAIVLTVPGSERSYDLTCLKPGTEYTVSIYGVHNVYKDTNMRGLPLSAIFTT
Reported result: 66 °C
//
Molecule: L47C: cysteine variant of P54AR4-83v2 (SEQ ID NOS: 202 and 240); NEM and VC-MMAF conjugates (conjugate, NEM or vcMMAF conjugate; EGFR binding FN3 domain, NEM and VC-MMAF conjugates) MLPAPKNLVVSEVTEDSARLSWDDPWAFYESFLIQYQESEKVGEAIVCTVPGSERSYDLTGLKPGTEYTVSIYGVHNVYKDTNMRGLPLSAIFTT
Reported result: 67 °C

# input for lookup
# input Look up Second Scan Tm of G64C: cysteine variant of P54AR4-83v2 (SEQ ID NOS: 209 and 247); NEM and VC-MMAF conjugates (conjugate, NEM or vcMMAF conjugate; EGFR binding FN3 domain, NEM and VC-MMAF conjugates) MLPAPKNLVVSEVTEDSARLSWDDPWAFYESFLIQYQESEKVGEAIVLTVPGSERSYDLTGLKPCTEYTVSIYGVHNVYKDTNMRGLPLSAIFTT and report it.
# output 70 °C
